Provide the recorded recombinant UMI read abundance (log10) for the entries that follow.
Test: recombinant UMI read abundance after kanamycin selection (control-corrected) (log10(CPM+1)); higher = more efficient recombination; extreme values may be limits of the assay; sequences stand for … in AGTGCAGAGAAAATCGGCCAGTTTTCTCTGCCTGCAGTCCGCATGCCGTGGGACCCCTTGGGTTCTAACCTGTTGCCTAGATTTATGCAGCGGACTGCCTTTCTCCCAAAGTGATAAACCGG…AGGTTGGTTTCACT; site = the 11-nt donor;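 also: IS621 bridge recombinase in Escherichia coli cells against a fixed T5 target plasmid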
Numbers only.

| query_sequence | recombinant UMI read abundance (log10) |
| --- | --- |
| ATAAGACCATGGACCGGTTTTCCCGGTAATCCGTATTTGAC (site ATAAGTCCTGT) | 0 |
| CCACATCCATGGACCGGTTTTCCCGGTAATCCGTATTTGAC (site CCACATCCTGT) | 0 |
| TAGGAATCATGGACCGGTTTTCCCGGTAATCCGTATTTGTG (site TAGGAATCTCG) | 2.63 |

Give recombinant UMI read abundance (log10) for all sequences that follow.
1. TCATACTCATGGACCGGTTTTCCCGGTAATCCGTATTTGGA (site TCATACTCTTC)
2. TGGACGTCATGGACCGGTTTTCCCGGTAATCCGTATTTGTT (site TGGACGTCTAA)
3. TCCAATCCATGGACCGGTTTTCCCGGTAATCCGTATTTGCC (site TCCAATTCTGG)
4. AGGAAGACATGGACCGGTTTTCCCGGTAATCCGTATTTGCA (site ACGAAGACTTG)
5. AGGCAGACATGGACCGGTTTTCCCGGTAATCCGTATTTGCA (site AGGAAGACTTG)

[1.76, 0.483, 0, 0.832, 0.346]

What recombinant UMI read abundance (log10) value was documented for this sequence, GAAAATTCATGGACCGGTTTTCCCGGTAATCCGTATTTGTT (site GAAGATTCTAA) ?
0.507

====

Test: recombinant UMI read abundance after kanamycin selection (control-corrected) (log10(CPM+1)); higher = more efficient recombination; extreme values may be limits of the assay; sequences stand for … in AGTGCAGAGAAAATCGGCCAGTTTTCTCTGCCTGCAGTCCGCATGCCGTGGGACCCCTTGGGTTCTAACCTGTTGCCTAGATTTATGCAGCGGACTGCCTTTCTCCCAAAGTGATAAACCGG…AGGTTGGTTTCACT; site = the 11-nt donor
Label True when recombinant UMI read abundance (log10) is at or above 0.4; anything below gets False.

| query_sequence | label |
| --- | --- |
| GTTAAAACATGGACCGGTTTTCCCGGTAATCCGTATTTGGC (site GTTAGAACTGC) | False |
| CTAGCGCCATGGACCGGTTTTCCCGGTAATCCGTATTTGTG (site CCAGCGCCTCA) | False |
| GCTACTGCATGGACCGGTTTTCCCGGTAATCCGTATTTGGC (site GCTACTGCTGC) | True |
| TTTAGCCCATGGACCGGTTTTCCCGGTAATCCGTATTTGCT (site TTTAGCCCTAG) | False |
| TGCTATTCATGGACCGGTTTTCCCGGTAATCCGTATTTGTA (site TGCTATTCTTA) | True |
| AGTTAGACATGGACCGGTTTTCCCGGTAATCCGTATTTGAG (site GGTTAGACTCT) | False |
| GCTGGGACATGGACCGGTTTTCCCGGTAATCCGTATTTGTG (site GCTGGGACTCA) | True |
| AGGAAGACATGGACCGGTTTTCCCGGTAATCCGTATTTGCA (site AGAATGACTTG) | True |

Shifting focus to the sequence that follows.
# check: recombinant UMI read abundance (log10) of CACTCCACATGGACCGGTTTTCCCGGTAATCCGTATTTGCG (site CACTCCACTCG) is greater than or equal to 0.4
True
